B1: HDV Ribozyme (parent)
chain: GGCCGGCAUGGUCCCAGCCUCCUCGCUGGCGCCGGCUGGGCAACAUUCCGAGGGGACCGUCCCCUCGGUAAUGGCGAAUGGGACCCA

Variants of: B1
Assay: self-cleavage, relative activity (ratio to wild type); higher = more cleavage; co-transcriptional
Label NOT MET if self-cleavage falls below 0.1; label MET in every other case.

Q: Say whether C33G U46A shows self-cleavage of 0.1 or more.
A: NOT MET

Q: Say whether C30G C61U shows self-cleavage of 0.1 or more.
A: NOT MET

Q: Say whether U23A C86A shows self-cleavage of 0.1 or more.
A: MET

Q: Say whether G55U G67A shows self-cleavage of 0.1 or more.
A: MET

Q: Say whether A51U G81A shows self-cleavage of 0.1 or more.
A: MET

Q: Say whether C48U A56G shows self-cleavage of 0.1 or more.
A: MET

Q: Say whether U9A G35U shows self-cleavage of 0.1 or more.
A: MET

Q: Say whether C3A C66U shows self-cleavage of 0.1 or more.
A: MET

Q: Say whether C36U C57G shows self-cleavage of 0.1 or more.
A: MET

Q: Say whether U27G C61U shows self-cleavage of 0.1 or more.
A: MET

Q: Say whether C19G C30A shows self-cleavage of 0.1 or more.
A: NOT MET

Q: Say whether G67A G82C shows self-cleavage of 0.1 or more.
A: MET

Q: Say whether U37G U47G shows self-cleavage of 0.1 or more.
A: NOT MET

Q: Say whether U20G U72A shows self-cleavage of 0.1 or more.
A: NOT MET

Q: Say whether G10A G74C shows self-cleavage of 0.1 or more.
A: MET

Q: Say whether G39C C61U shows self-cleavage of 0.1 or more.
A: MET

Q: Say whether C14U C75G shows self-cleavage of 0.1 or more.
A: MET

Q: Say whether G2A C13G shows self-cleavage of 0.1 or more.
A: NOT MET

Q: Say whether C3U G17C shows self-cleavage of 0.1 or more.
A: NOT MET

Q: Say whether U12A C24A shows self-cleavage of 0.1 or more.
A: MET

Q: Say whether U65A A70U shows self-cleavage of 0.1 or more.
A: MET

Q: Say whether G29A U72G shows self-cleavage of 0.1 or more.
A: NOT MET

Q: Say whether G34C G76C shows self-cleavage of 0.1 or more.
A: MET

Q: Say whether U9C G11A shows self-cleavage of 0.1 or more.
A: NOT MET

Q: Say whether C48A U72C shows self-cleavage of 0.1 or more.
A: MET

Q: Say whether C33A G53C shows self-cleavage of 0.1 or more.
A: MET

Q: Say whether C75G C86G shows self-cleavage of 0.1 or more.
A: NOT MET

Q: Say whether C18A C26U shows self-cleavage of 0.1 or more.
A: MET

Q: Say whether C14A A87U shows self-cleavage of 0.1 or more.
A: MET

Q: Say whether G5A C21U shows self-cleavage of 0.1 or more.
A: MET

Q: Say whether C7U U65C shows self-cleavage of 0.1 or more.
A: MET

Q: Say whether C15U C26A shows self-cleavage of 0.1 or more.
A: MET

Q: Say whether G29U G38C shows self-cleavage of 0.1 or more.
A: NOT MET

Q: Say whether A56C C66A shows self-cleavage of 0.1 or more.
A: MET

Q: Say whether G73U G74U shows self-cleavage of 0.1 or more.
A: MET

Q: Say whether C62A C63G shows self-cleavage of 0.1 or more.
A: MET

Q: Say whether U12C U46G shows self-cleavage of 0.1 or more.
A: NOT MET

Q: Say whether C33U G73C shows self-cleavage of 0.1 or more.
A: MET

Q: Say whether C61A G68C shows self-cleavage of 0.1 or more.
A: MET

Q: Say whether C4U C44U shows self-cleavage of 0.1 or more.
A: MET

Q: Say whether U9G G40U shows self-cleavage of 0.1 or more.
A: MET

Q: Say whether U9G U69G shows self-cleavage of 0.1 or more.
A: MET

Q: Say whether C19A U72A shows self-cleavage of 0.1 or more.
A: NOT MET

Q: Say whether G28U C49A shows self-cleavage of 0.1 or more.
A: NOT MET

Q: Say whether A8U C64U shows self-cleavage of 0.1 or more.
A: MET

Q: Say whether G50C U60G shows self-cleavage of 0.1 or more.
A: MET
